# target of assay: Recombinant human proMMP13 (collagenase 3) (Homo sapiens)
# protocol: Collagenase 3 (MMP13) enzyme inhibition assay with fluorogenic peptide substrate
# measurement context: APMA-activated MMP13, 4-5 hours at 35° C., pH 7.5, fluorescence λex 328 nm / λem 393 nm
pIC50: −log10 of the molar value.

{"compound": "CCC1(CS(=O)(=O)N2CCC(Oc3ccc(OCCC(F)(F)F)cc3)CC2)NC(=O)NC1=O (stereo not drawn) [Example 8]", "pIC50": 8.26}
{"compound": "CC[C@]1(CS(=O)(=O)N2CCC(Oc3ccc(OCC(F)(F)C(F)F)cc3)CC2)NC(=O)NC1=O [Example 10]", "pIC50": 9.15}
{"compound": "CC[C@]1(CS(=O)(=O)N2CCC(Oc3ccc(OC(F)(F)C(F)(F)F)cc3)CC2)NC(=O)NC1=O [Example 6]", "pIC50": 7.89}
{"compound": "CC[C@]1(CS(=O)(=O)N2CCC(Oc3ccc(OCC(F)(F)F)cc3)CC2)NC(=O)NC1=O [Example 2]", "pIC50": 8.08}
{"compound": "CCC1(CS(=O)(=O)N2CCC(Oc3ccc(OC(F)(F)C(F)F)cc3)CC2)NC(=O)NC1=O (stereo not drawn) [Example 4]", "pIC50": 8.31}
{"compound": "CC[C@]1(CS(=O)(=O)N2CCC(Oc3ccc(OCC(F)(F)C(F)(F)F)cc3)CC2)NC(=O)NC1=O [Example 12]", "pIC50": 8.72}
